The values you see were collected from the supplement of paper PMC6555819.

- Tested on: LXRb homodimer (NR concentration 270 nM)
- Experiment: PBM binding z-score (relative to random genomic background probes); higher = stronger binding; sequences stand for … in GC…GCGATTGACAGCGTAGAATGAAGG
Category scheme (PBM binding z-score): low end = under -0.3, middle = from -0.3 up to 0.3, high end = 0.3 and over

Sequence Content | Class Name
AAATGTAGGTTACATCCGGGTCATTCAGGCTATG | high end
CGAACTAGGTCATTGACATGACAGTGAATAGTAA | middle
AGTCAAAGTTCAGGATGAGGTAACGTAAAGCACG | middle
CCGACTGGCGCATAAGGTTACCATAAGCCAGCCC | low end
TCTTGTAGATCAAGCAGGTTAAGAATGCCTGAGT | low end
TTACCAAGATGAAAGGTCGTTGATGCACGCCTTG | middle
AATACAGGGTCAGTAGGCCAGAGTAGGTACGAAT | high end
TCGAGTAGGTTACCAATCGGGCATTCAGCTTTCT | low end
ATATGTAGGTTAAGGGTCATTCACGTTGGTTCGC | high end
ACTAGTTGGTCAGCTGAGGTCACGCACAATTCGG | high end
TCTAGTTGGTCAAAGGTCCCACACTCGAAATGCG | middle
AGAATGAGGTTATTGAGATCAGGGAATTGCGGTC | middle
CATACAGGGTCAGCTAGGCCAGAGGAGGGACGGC | high end
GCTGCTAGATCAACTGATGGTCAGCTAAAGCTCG | low end
GCATATAGCTAATACAAGGTGAAAGTCCGATTGT | middle
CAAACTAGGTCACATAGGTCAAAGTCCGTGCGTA | high end
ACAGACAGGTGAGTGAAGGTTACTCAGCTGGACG | low end
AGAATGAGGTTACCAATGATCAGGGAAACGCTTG | low end
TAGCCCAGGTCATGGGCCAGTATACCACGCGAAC | low end
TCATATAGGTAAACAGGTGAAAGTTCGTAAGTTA | middle
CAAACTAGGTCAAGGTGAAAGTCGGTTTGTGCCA | middle
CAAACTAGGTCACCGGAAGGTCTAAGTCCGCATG | high end
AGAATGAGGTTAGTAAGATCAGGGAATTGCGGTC | middle
CTTACAGGGTCAGCTAGGCCAGAGTAGGGACGGC | middle
ACTCGGAGGACAAAGGTCGGAGCTACGCCAGTGA | middle
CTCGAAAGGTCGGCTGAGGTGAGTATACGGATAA | low end
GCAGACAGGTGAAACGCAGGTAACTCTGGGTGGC | low end
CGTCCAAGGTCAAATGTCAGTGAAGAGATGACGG | high end
CCGACTGGGGCAAGGTTACGATAACGCACAGCCA | low end
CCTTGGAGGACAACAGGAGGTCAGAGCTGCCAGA | middle
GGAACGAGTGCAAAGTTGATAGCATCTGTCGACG | low end

* * *

Each entry below lists one item and its recorded PBM binding z-score value.
- System: RARg:RXRa (NR concentration 270 nM, RXRa partner concentration 90 nM)
- Experiment: PBM binding z-score (relative to random genomic background probes); higher = stronger binding; sequences stand for … in GC…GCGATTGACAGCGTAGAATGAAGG

Sequence Content | PBM binding z-score
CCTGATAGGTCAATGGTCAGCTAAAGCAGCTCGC | 4.62
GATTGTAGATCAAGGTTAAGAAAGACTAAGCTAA | 0.14
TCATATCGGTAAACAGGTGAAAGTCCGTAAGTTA | 0.475
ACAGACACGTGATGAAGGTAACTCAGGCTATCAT | 0.142
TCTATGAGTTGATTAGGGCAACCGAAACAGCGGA | 0.54
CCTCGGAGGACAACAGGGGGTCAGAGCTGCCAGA | 4.25
TCAGACGGGTGAAGGTAACTCAGGTACGCAGTCG | 0.19
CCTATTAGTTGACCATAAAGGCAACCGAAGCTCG | 0.557
CCTAGCAGGCCAATCTGGGTCACTCGAGGCTTGA | 1.11
TCTTGTAGATCAATAGAGGTTATGAAAGTGCGCT | 1.01
TCATATAGGTAAATGCTAGGTGAAAGTTCGATCT | 0.926
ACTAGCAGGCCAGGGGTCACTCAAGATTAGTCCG | 5.09
GCTATTAGTTGAAAGGGCAACCTAATGATTCTCG | 1.35
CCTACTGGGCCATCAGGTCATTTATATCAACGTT | 1.8
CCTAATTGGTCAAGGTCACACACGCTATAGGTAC | 4.73
AATCCAGGGTCACTAGGCCAGAGTAGGTACGAAT | 5.39
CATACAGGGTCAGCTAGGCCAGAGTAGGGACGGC | 4.44
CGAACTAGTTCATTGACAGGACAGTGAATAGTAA | 1.79
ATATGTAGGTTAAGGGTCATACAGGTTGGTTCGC | 5.01
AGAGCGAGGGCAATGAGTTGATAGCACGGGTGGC | 1.19
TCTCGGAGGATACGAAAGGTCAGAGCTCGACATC | 4.12
ATATGTAGGTTACATCCGGGCCATTCAGGCTATG | 1.35

* * *

- Tested on: RARa homodimer (NR concentration 270 nM)
- Experiment: PBM binding z-score (relative to random genomic background probes); higher = stronger binding; sequences stand for … in GC…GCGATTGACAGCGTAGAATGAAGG

Sequence Content | PBM binding z-score
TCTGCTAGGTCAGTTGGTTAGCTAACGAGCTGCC | -1.34
GCTGCTAGGTCAGGTTCGTCAGCTAACGGGTACG | -0.894
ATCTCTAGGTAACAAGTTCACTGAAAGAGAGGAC | 0.943
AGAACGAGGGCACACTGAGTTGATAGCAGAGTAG | 0.142
TCGAGTAGGTTAGGGCCATTCAGAATGGCGTCGA | -0.395
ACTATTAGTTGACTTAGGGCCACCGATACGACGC | 0.459
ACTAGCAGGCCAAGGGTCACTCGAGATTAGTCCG | 0.545
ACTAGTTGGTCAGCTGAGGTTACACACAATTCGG | -0.138
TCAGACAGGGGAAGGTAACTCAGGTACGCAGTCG | 0.801
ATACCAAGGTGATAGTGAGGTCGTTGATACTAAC | 0.553
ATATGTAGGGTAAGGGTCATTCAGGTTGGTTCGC | 3.71
CGACCAAGGTCAATGCTAGGTCAGTGAAAGCATT | 0.803
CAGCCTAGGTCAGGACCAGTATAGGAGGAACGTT | 0.139
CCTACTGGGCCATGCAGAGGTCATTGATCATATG | 0.229
CTACCAAGGTGAAGAAGGTCGTTGATTACTATTC | 0.317
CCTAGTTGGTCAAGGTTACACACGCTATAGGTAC | 1.63
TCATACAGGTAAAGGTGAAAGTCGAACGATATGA | 1.18
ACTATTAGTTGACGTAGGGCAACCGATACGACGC | 0.628
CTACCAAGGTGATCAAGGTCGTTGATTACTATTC | 0.0994
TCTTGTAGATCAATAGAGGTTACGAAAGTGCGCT | 0.489
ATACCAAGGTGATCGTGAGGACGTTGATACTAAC | 0.115
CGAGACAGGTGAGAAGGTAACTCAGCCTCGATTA | -0.321
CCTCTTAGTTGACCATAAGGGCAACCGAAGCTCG | 0.928
CCAGACAGGTGCAAGGTAACTCAGTCTGGTACGC | -0.328
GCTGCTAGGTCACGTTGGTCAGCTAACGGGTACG | -0.306
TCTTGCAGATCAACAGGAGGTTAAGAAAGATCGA | -0.193

* * *

- Tested on: VDR:RXRa (NR concentration 270 nM, RXRa partner concentration 90 nM)
- Experiment: PBM binding z-score (relative to random genomic background probes); higher = stronger binding; sequences stand for … in GC…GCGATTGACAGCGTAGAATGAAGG
Measured Endpoint: PBM binding z-score

Sequence Content | Endpoint Value
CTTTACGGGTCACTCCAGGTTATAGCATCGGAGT | 4.46
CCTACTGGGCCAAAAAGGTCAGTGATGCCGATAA | 2.91
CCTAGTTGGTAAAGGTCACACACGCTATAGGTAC | 4.9
TCTTGTGGATCAACAGGAGGTTAAGAAAGATCGA | 0.329
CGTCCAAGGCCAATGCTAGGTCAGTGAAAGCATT | 0.034
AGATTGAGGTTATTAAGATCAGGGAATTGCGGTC | 2.28
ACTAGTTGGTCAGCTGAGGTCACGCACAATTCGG | 5.09
GATATTAGTTGAAAGGGCAACCGAATGATTCTCG | 0.661
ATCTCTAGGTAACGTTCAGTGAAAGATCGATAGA | 0.101
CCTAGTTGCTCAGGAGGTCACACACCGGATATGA | 3.76
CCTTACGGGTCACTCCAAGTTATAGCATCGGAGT | 2.82
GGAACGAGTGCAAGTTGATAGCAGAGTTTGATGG | 0.646
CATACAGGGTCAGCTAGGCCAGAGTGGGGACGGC | 4.01
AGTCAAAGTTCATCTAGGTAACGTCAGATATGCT | 5.17
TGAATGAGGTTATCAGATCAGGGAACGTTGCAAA | 1.04
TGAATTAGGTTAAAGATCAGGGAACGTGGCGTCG | 0.374
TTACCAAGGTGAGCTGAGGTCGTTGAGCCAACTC | 4.29
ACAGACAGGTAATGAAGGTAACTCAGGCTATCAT | 0.244
TGAAAGAGGTTATAAGATCAGGGAACGTTGCAAA | 0.894
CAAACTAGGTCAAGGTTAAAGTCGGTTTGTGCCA | 3.2
ACAGACAGCTGAGTGAAGGTAACTCAGCTGGACG | -0.322
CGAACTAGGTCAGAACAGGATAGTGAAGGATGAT | 0.322
ATATGTAAGTTAAGGGTCATTCAGGTTGGTTCGC | 5.46
GCAGACAGGTGAAACGCAGTTAACTCAGGGTGGC | -0.561
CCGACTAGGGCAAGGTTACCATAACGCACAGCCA | 0.178
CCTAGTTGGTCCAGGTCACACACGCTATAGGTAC | 2.54
TAGCCTATGTCATTCAGGGGCCAGTATAGAAAGC | -0.286
CCTATTGGGCCAAGGTCATTGATCAGTCAAAGCA | 3.29
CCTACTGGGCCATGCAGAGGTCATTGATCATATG | 3.86
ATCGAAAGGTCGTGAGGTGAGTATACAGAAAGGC | 3.69
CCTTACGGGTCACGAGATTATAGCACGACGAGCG | 3.55
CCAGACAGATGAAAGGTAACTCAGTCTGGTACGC | 0.208
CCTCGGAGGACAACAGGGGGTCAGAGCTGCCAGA | 3.17
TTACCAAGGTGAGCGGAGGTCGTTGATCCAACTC | 3.36
